Data credit: PubChem BioAssay AID1159580

PROTOCOL_DETAILS: chemical genetic growth profiling, strain panel (AID 1159580);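 note: tested at 20 µM; growth read once vehicle control cultures reached saturation at 30 °C; 1 = growth at the plate median or of vehicle wells; lower values mean less growth of the strain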
CONDITION: S. cerevisiae deletion strains, growth OD, locus YOR106W, strain vam3
In all, about 5,500 compounds went through this assay and about 2,000 (36%) were called active. Another 18% or so got no clear call; they are omitted. Cut-off read from the data, not from the text of the source: active = normalized growth mostly below about 0.91 (no sharp cut-off); inconclusive = no clear call, values can overlap the other calls; inactive = mostly above about 0.92. This is one part of the list.
Would you mind answering with one of these outcomes? active, inactive

# count of solved cases: 5
c1ccc(CN(CC2=NCCN2)c2ccccc2)cc1 = inactive
Cc1cccc(Nc2cc(Cl)nc(SCC(=O)O)n2)c1C = inactive
CC[C@H]1OC(=O)C[C@@H](O)[C@H](C)[C@@H](O[C@@H]2O[C@H](C)[C@@H](O[C@H]3C[C@@](C)(O)[C@@H](O)[C@H](C)O3)[C@H](N(C)C)[C@H]2O)[C@@H](CC=O)C[C@@H](C)C(=O)/C=C/C(C)=C/[C@@H]1CO[C@@H]1O[C@H](C)[C@@H](O)[C@@H](OC)[C@H]1OC = inactive
CC(C)CC1C(=O)N2CCC[C@H]2C2(O)O[C@](NC(=O)C3C=C4c5cccc6[nH]c(Br)c(c56)C[C@H]4N(C)C3)(C(C)C)C(=O)N12 (some centres undefined) = inactive
CN=C(NC#N)NCCSCc1nc(N=C(N)N)cs1 = inactive

Please turn your attention to the following entry.
Incoming: Check the results log: what was the call for c1ccc(CC2=NCCN2)cc1 ?
Outgoing: inactive

====

PROTOCOL_DETAILS: chemical genetic growth profiling, strain panel (AID 1159580);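 note: tested at 20 µM; growth read once vehicle control cultures reached saturation at 30 °C; 1 = growth at the plate median or of vehicle wells; lower values mean less growth of the strain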
CONDITION: S. cerevisiae deletion strains, growth OD, locus YEL037C, strain rad23, hits give low values
The campaign covered roughly 5,500 compounds. About 2,000 (36%) were called active. Not shown: some 18% with an inconclusive outcome. Some of the results follow.
MEASURED_PARAMETER: normalized growth
One number for each entry.

// below: answered compounds
NC[C@@H]1O[C@H](O[C@@H]2[C@@H](CO)OC(O[C@@H]3[C@@H](O)[C@H](N)C[C@H](N)[C@H]3OC3O[C@H](CN)[C@@H](O)[C@H](O)[C@H]3N)[C@@H]2O)[C@H](N)[C@@H](O)[C@@H]1O (some centres not stated) = 1.03
C[N+](C)(C)CC(=O)[O-] = 0.989
CC[C@@H](CO)NCCN[C@@H](CC)CO = 1.01
O=C1CC(c2ccc(O)c(O)c2)Oc2cc(O)cc(O)c21 (configuration not stated) = 0.986
NC(N)=Nc1nc(CSCCC(N)=NS(N)(=O)=O)cs1 = 0.975
O=[N+]([O-])O[C@H]1CO[C@H]2[C@@H]1OC[C@H]2O[N+](=O)[O-] = 0.995
O=C(/C=C/c1ccccc1)O[C@H]1C[C@@H](O)[C@]2(O)C=CO[C@@H](O[C@@H]3O[C@H](CO)[C@@H](O)[C@H](O)[C@H]3O)[C@H]12 = 1.02
O=c1ccc2cc(O)c(O)cc2o1 = 1
CC(=O)O[C@H]1C(=O)[C@@]2(C)C([C@H](OC(=O)c3ccccc3)[C@]3(O)C[C@H](OC(=O)[C@H](O)[C@@H](NC(=O)c4ccccc4)c4ccccc4)C(C)=C1C3(C)C)[C@]1(OC(C)=O)CO[C@@H]1C[C@@H]2O (some centres not stated) = 1.02
COc1cccc2c1CCC1CC(=O)CCC21C (configuration not stated) = 0.992

Here are 3 compounds. What values of normalized growth were reported for them?
1. CCC1(c2ccccc2)C(=O)NCNC1=O
2. CC(=O)OCC(CCn1cnc2cnc(N)nc21)COC(C)=O
3. CN1CCCC(n2nc(Cc3ccc(Cl)cc3)c3ccccc3c2=O)CC1 (configuration not stated)

Outgoing:
[0.98, 1, 0.992]

Here are 6 compounds. What values of normalized growth were reported for them?
1. CC1(C)C2CC[C@]3(C)C(C(=O)C=C4[C@@H]5C[C@@](C)(C(=O)O)CC[C@]5(C)CC[C@]43C)[C@@]2(C)CC[C@@H]1OC(=O)CCC(=O)O (some centres not stated)
2. CCCCCC(=O)O[C@]1(C(C)=O)CCC2C3CCC4=CC(=O)CC[C@]4(C)C3CC[C@@]21C (some centres not stated)
3. CC(=O)OC1CC23CC24CCC(OC2OCC(O)C(O)C2O)C(C)(C)C4CCC3C2(C)CC3OC4(CC(C)C3C12C)OC(O)C1(C)OC41 (configuration not stated)
4. C[C@@H]1O[C@@H](O[C@H]2[C@@H](Oc3cc(O)c4c(c3)O[C@H](c3ccc(O)cc3)CC4=O)O[C@H](CO)[C@@H](O)[C@@H]2O)[C@H](O)[C@H](O)[C@H]1O
5. CCc1nc(N)nc(N)c1-c1ccc(Cl)cc1
6. CN1C2CC3C[C@H]1C(O3)C2O (some centres not stated)

Outgoing:
[0.986, 1, 1, 0.966, 0.969, 1.02]

Here are 2 compounds. What values of normalized growth were reported for them?
1. COc1ccc(C2CC(=O)c3ccc(OC)cc3O2)cc1 (configuration not stated)
2. CCC1(c2ccc(N)cc2)CCC(=O)NC1=O (configuration not stated)

Outgoing:
0.962
0.951

Here are 3 compounds. What values of normalized growth were reported for them?
1. CC(C(=O)O)c1ccc2c(c1)[nH]c1ccc(Cl)cc12 (configuration not stated)
2. c1ccc(CN(CC2=NCCN2)c2ccccc2)cc1
3. CC(=O)O[C@]1(C(C)=O)CCC2C3C=C(C)C4=CC(=O)CCC4(C)C3CCC21C (some centres not stated)

Outgoing:
1: 0.99; 2: 1.01; 3: 0.969
